assay: chemical genetic growth profiling, strain panel (AID 1159580);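 further: tested at 20 µM; growth read once vehicle control cultures reached saturation at 30 °C; 1 = growth at the plate median or of vehicle wells; lower values mean less growth of the strain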; details: S. cerevisiae deletion strains, growth OD, locus YIL125W, strain kgd1, active compounds read low
Hit rate of the full screen: of about 5,500 compounds, about 2,000 (36%) were called active. About 18% were inconclusive and are not listed. The list shows a part of the results.
Decision: normalized growth beneath 1 gives Condition met; normalized growth meeting or exceeding 1 gives Condition not met.

Answered cases to consult:
INSERT INTO results (compound, class_assignment) VALUES
  ('COc1c2c(c(CC=C(C)C)c3oc(=O)c(-c4ccc(O)cc4)c(O)c13)OC(C)(C)C=C2', 'Condition met'),
  ('O[C@H]1C=C2CCN3Cc4cc5c(cc4C(C23)[C@@H]1O)OCO5 (stereo partly specified)', 'Condition met'),
  ('COc1c(CC=C(C)C)c2c(c3oc(=O)c(-c4ccc(O)cc4)c(O)c13)C=CC(C)(C)O2', 'Condition met'),
  ('COc1ccc(C(=O)c2ccccc2O)c(O)c1', 'Condition met');

Ask: normalized growth under 1? Item: `CC(C)N(C(=O)CCl)c1ccccc1`
Result: Condition not met

###

assay: chemical genetic growth profiling, strain panel (AID 1159580); settings: S. cerevisiae deletion strains, growth OD, locus YBR023C, strain chs3, active compounds read low
Screen size: about 5,500 compounds; about 2,000 (36%) were called active. Inconclusive results (about 18%) are left out. Some of the results follow.
Reported normalized growth is given for each of the following compounds.
Hey, just send me the number, nothing else.

Below: 2 compounds and their reported normalized growth.
INSERT INTO assay_data (compound, measured_number) VALUES
  ('CCN(CC)C(=S)SSC(=S)N(CC)CC', 0.0638),
  ('CC(C)(CO)C(O)C(=O)NCCCO (stereo not drawn)', 1.03);

Ask: What value of measured normalized growth is listed for `S=C=NCc1ccccc1` ?
Result: 0.0813

Ask: Fill in: normalized growth of `COc1ccc(C(=O)c2ccccc2)c(O)c1` is ___
Result: 0.807

Ask: normalized growth lookup needed for CCc1ccc(CCOc2ccc(CC3SC(=O)NC3=O)cc2)nc1 (stereo not drawn) , thanks.
Result: 1

Ask: Value lookup for normalized growth; key = `COc1ccc(C(=O)c2ccccc2O)c(O)c1`
Result: 0.867

Ask: GET /values?readout=normalized growth&item= `COc1ccc(C[C@H]2NC[C@H](O)[C@H]2OC(C)=O)cc1`
Result: 0.823

Ask: Consider the compound `c1ccc(CC2=NCCN2)cc1` and give its measured normalized growth.
Result: 1.01

###

assay: chemical genetic growth profiling, strain panel (AID 1159580); details: S. cerevisiae deletion strains, growth OD, locus YKL068W, active compounds read low
The campaign covered roughly 5,500 compounds. About 2,000 (36%) were called active. Inconclusive results (about 18%) are left out. Some of the results follow.
Measure: normalized growth
Just the number.

// below: answered compounds
INSERT INTO measurements (compound, measure, measured_number) VALUES
  ('COc1c(CC=C(C)C)c2c(c3oc(=O)c(-c4ccc(OC(C)=O)cc4)c(OC(C)=O)c13)C=CC(C)(C)O2', 'normalized growth', 0.995),
  ('COc1c2c(c(CC=C(C)C)c3oc(=O)c(-c4ccc(O)cc4)c(O)c13)OC(C)(C)C=C2', 'normalized growth', 0.982),
  ('CN1Cc2c(ccc3c2OCO3)C2C(O)Cc3cc4c(cc3C21)OCO4 (stereo not given)', 'normalized growth', 1),
  ('COc1ccc(-c2c(O)c3cc4c(c(CC=C(C)C)c3oc2=O)OC(C)(C)CC4)cc1', 'normalized growth', 1.01);

Ask: Request the reported normalized growth associated with CN1CCc2cc3c(cc2C1O)OCO3 (stereo not given)
Result: 0.989

###

assay: chemical genetic growth profiling, strain panel (AID 1159580);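 further: tested at 20 µM; growth read once vehicle control cultures reached saturation at 30 °C; 1 = growth at the plate median or of vehicle wells; lower values mean less growth of the strain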; conditions: S. cerevisiae deletion strains, growth OD, locus YLR357W, strain rsc2, active compounds read low
The whole screen tested about 5,500 compounds, of which about 2,000 (36%) were called active. Roughly 18% stayed inconclusive and do not appear here. The list shows a part of the results.
Each entry below lists one item and its recorded normalized growth value.
Kindly provide the number alone.

INSERT INTO measurements (compound, measured_number) VALUES
  ('O=C(O)c1cc(=O)c2ccc(Cl)cc2[nH]1', 1.02);

Ask: Entry `CC[C@@H](CO)NCCN[C@@H](CC)CO` has what normalized growth?
Result: 0.986

Ask: Param item = COC(=O)[C@@H]1C(O)CC[C@H]2CN3CCc4c([nH]c5ccccc45)[C@@H]3C[C@@H]21 (stereo partly specified) ; retrieve measured normalized growth.
Result: 1.01

Ask: normalized growth for `CCCCCCCCCCCCCCCCOP(=O)([O-])OCC[N+](C)(C)C` ?
Result: 0.121

Ask: Quick check: normalized growth of OCC(O)Cc1ccc2c(c1)OCO2 (stereo unspecified) ?
Result: 0.973

Ask: Suppose we examine the compound `CNc1ccccc1C(=O)N1CCc2c([nH]c3ccccc23)C1=O` ; what normalized growth value has been reported?
Result: 0.973

Ask: Find the recorded normalized growth belonging to `N=c1nc(N2CCCCC2)cc(N)n1O` and report it.
Result: 0.996

Ask: What value of normalized growth has been reported for the following compound? COC(=O)C1[C@H]2C[C@H]3c4[nH]c5ccccc5c4CCN3C[C@@H]2CC[C@@H]1O (stereo partly specified)
Result: 0.985

Ask: If you can, please state the reported normalized growth value of `CCCCCCCC/C=C/CCCCCCCCOP(=O)([O-])OCC[N+](C)(C)C` .
Result: 0.106

Ask: # get_value(readout='normalized growth', item= `O=C(Cc1ccccc1)NO` )
Result: 0.938

Ask: # query: normalized growth of entry `OCCN(CCO)c1nc(N2CCCCC2)c2nc(N(CCO)CCO)nc(N3CCCCC3)c2n1`
Result: 0.985

###

assay: chemical genetic growth profiling, strain panel (AID 1159580);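 further: tested at 20 µM; growth read once vehicle control cultures reached saturation at 30 °C; 1 = growth at the plate median or of vehicle wells; lower values mean less growth of the strain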; conditions: S. cerevisiae deletion strains, growth OD, locus YBR021W, strain FUR4, active compounds read low
Out of some 5,500 compounds screened, about 2,000 (36%) were called active. Not shown: some 18% with an inconclusive outcome. The list shows a part of the results.
Reported values of normalized growth for individual entries

INSERT INTO results (compound, result) VALUES
  ('Cc1c(O)cc(O)c2c(=O)c(-c3ccc(O)cc3)coc12', '1.01 (inactive)'),
  ('Cc1ccc(C(=O)C(C)CN2CCCCC2)cc1 (stereo not drawn)', '1 (inactive)'),
  ('OC(CCN1CCCCC1)(c1ccccc1)c1ccccc1', '1.02 (inactive)');

Ask: Could you tell me which normalized growth is on file for `COc1c(O)cc2oc3cc(O)c(CC=C(C)C)c(O)c3c(=O)c2c1CC=C(C)C` ?
Result: 0.578 (active)

Ask: # input compound: `O=C(O)c1ccccc1OP(=O)(O)O` ; wanted: its normalized growth
Result: 1.01 (inactive)

Ask: I am curious: what normalized growth value has been reported for CCCCCC(=O)O[C@]1(C(C)=O)CCC2C3CCC4=CC(=O)CC[C@]4(C)C3CC[C@@]21C (stereo partly drawn) ?
Result: 0.948 (inactive)

Ask: Requested field: normalized growth. Item: C[N+](C)(C)CCOP(=O)([O-])OP(=O)(O)OC[C@H]1OC(n2ccc(N)nc2=O)[C@H](O)[C@@H]1O (stereo partly drawn)
Result: 1.01 (inactive)

Ask: Return reported normalized growth; argument: COC1C(O)C(O)C(O)[C@@H](O)C1O (stereo partly drawn)
Result: 1.03 (inactive)

Ask: Suppose we examine the compound CC(=O)O[C@]1(C(C)=O)CCC2C3C[C@H](C)C4=CC(=O)CC[C@]4(C)C3CC[C@@]21C (stereo partly drawn) ; what normalized growth value has been reported?
Result: 0.993 (inactive)

Ask: Which normalized growth value belongs to `COC(=O)COc1ccc(Cl)cc1Cl` ?
Result: 1.01 (inactive)

Ask: Dear colleague, I am looking for the recorded normalized growth of the following compound: `O=c1ccc2ccccc2o1`
Result: 1 (inactive)

###

test: chemical genetic growth profiling, strain panel (AID 1159580);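 further: tested at 20 µM; growth read once vehicle control cultures reached saturation at 30 °C; 1 = growth at the plate median or of vehicle wells; lower values mean less growth of the strain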; settings: S. cerevisiae deletion strains, growth OD, locus YMR231W, strain pep5, active compounds read low
The campaign covered roughly 5,500 compounds. About 2,000 (36%) were called active. Another 18% or so got no clear call; they are omitted. This is one part of the list.
Please note: normalized growth exactly at 1 is Criterion not met. Only values below 1 get Criterion met.

# count of solved cases: 5
INSERT INTO results (molecule, class_assignment) VALUES
  ('C[CH2][Hg][S]c1ccccc1C(=O)O', 'Criterion met'),
  ('CCCCCCCCCCCCCCCCOP(=O)([O-])OCC[N+](C)(C)C', 'Criterion met'),
  ('COc1cccc([C@]2(O)CCCC[C@H]2CN(C)C)c1', 'Criterion met'),
  ('O=C(O)C1CC([C@@H]2CCCCN2)CN2CCCCC12 (some centres undefined)', 'Criterion met'),
  ('CCCCCC(C)N (centres undefined)', 'Criterion not met');

Kindly consider the entry below.
Ask: In plain terms, does `S=C=NCc1ccccc1` come in under 1 for normalized growth?
Result: Criterion met
